Test: small-molecule microarray binders of probe aShh, primary screen, biochemical, biotinylated probe, 635/667 nm fluorescence (AID 1114);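 also: probe is biotin-labelled aShh protein from a stem cell growth factor screen; measures binding of labelled protein to compounds printed on the slide; score merges feature fluorescence at 667 nm with signal-to-noise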
Conditions: higher = more signal
QUANTITY NAME: composite z-score
Numbers only.

For the 4 compounds below, give their composite z-score values.
1. CC(C)=CCCC(C)=CCON=C1C[C@@H](O)[C@@H](O)[C@@H]2[C@@H]3C(=O)N(C4CCCCC4)C(=O)[C@@H]3CC[C@@H]12
2. C[C@H](ON=C1[C@H]2CCn3c(=O)n(-c4ccccc4)c(=O)n3[C@H]2[C@H](O)[C@@H]2O[C@H]12)c1cn([C@H](CO)Cc2ccccc2)nn1
3. CC(CCC(=O)OC[C@H]1O[C@H](C#Cc2ccccc2)C=C[C@@H]1Oc1ccc(C)cc1)=NO[C@H](C)c1cn([C@H](CO)Cc2ccccc2)nn1
4. CC(CCN1CCCCc2nc(C)c(C)cc21)=NOC[C@@H](C)[C@H](OCc1ccccc1)C(C)C

-0.209
-0.195
-0.138
-0.428

# compound O=C1[C@H]2[C@H]3[C@H](O)[C@H](O)CC(=NOC[C@@H](O)COCc4ccco4)[C@H]3CC[C@H]2C(=O)N1C[C@@H]1CCCO1 ; its composite z-score = 0.0899

---

Assay: small-molecule binders of probe aNOTCH3, primary screen, biochemical, small-molecule microarray, 635/667 nm fluorescence (AID 1120);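 also: probe is a biotin-tagged antibody raised against NOTCH3 rather than NOTCH3 protein; score merges spot fluorescence near 667 nm with spot signal to noise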
Conditions: higher = more signal
Label met when composite z-score is at or above -0.04; anything below gets not met.

Known results for compounds:
>  <COMPOUND>
O=C(NN=C1C[C@@H](O)[C@@H](O)[C@@H]2[C@@H]3C(=O)N(Cc4ccccc4)C(=O)[C@@H]3CC[C@@H]12)OCc1ccccc1

>  <ASSIGNED CLASS>
met

$$$$
>  <COMPOUND>
COC(=O)[C@H](C)NC(=O)CCC1CC(OC(=O)NCc2cccc3ccccc23)CC2(CCCC(COC(=O)NCC(c3ccccc3)c3ccccc3)O2)O1 (stereo not given in full)

>  <ASSIGNED CLASS>
met

$$$$
>  <COMPOUND>
CC(C)CON=C1C[C@@H](O)[C@@H](O)[C@@H]2[C@@H]3C(=O)N(C4CCCCC4)C(=O)[C@@H]3CC[C@@H]12

>  <ASSIGNED CLASS>
not met

$$$$
>  <COMPOUND>
COc1ccc(O[C@H]2C=C[C@@H](c3ccccc3)O[C@@H]2CON=C(C)CCC(=O)OC[C@H]2O[C@H](c3ccccc3)C=C[C@@H]2Oc2ccc(OC)cc2)cc1

>  <ASSIGNED CLASS>
not met

$$$$

Read the next record carefully.
# bool: composite z-score of COc1cccc([C@@H]2Oc3ccc(OC)cc3C(=O)[C@H]2O)c1 >= -0.04
met

---

Consider the following molecules; for each one, report its composite z-score.
Target: Torsin-1A-interacting protein 2 (Homo sapiens)
Experiment: LULL1 binders on small-molecule microarray, primary screen, cell lysate, human LULL1 lysate, 635/667 nm fluorescence (AID 1092);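 also: probe is lysate of COS7 cells overexpressing human LULL1; score merges per-feature 667 nm fluorescence with signal-to-noise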
Conditions: hLULL1 lysate binding, 635 nm fluorescence, higher = more signal
Numbers only.

>  <LINE NOTATION>
COC(=O)CC=C[C@@H](C)[C@@H]1C=C[C@H](O)[C@@H](CO)O1

>  <TEST RESULT>
0.296

$$$$
>  <LINE NOTATION>
O=C1[C@H]2[C@H]3[C@H](O)[C@H](O)CC(=NOC[C@@H](O)COCc4ccco4)[C@H]3CC[C@H]2C(=O)N1Cc1ccccc1

>  <TEST RESULT>
-1.71

$$$$
>  <LINE NOTATION>
CCOC(=O)NN=C1C[C@@H](O)[C@@H](O)[C@@H]2[C@@H]3C(=O)N([C@@H](C)c4ccccc4)C(=O)[C@@H]3CC[C@H]12

>  <TEST RESULT>
0.261

$$$$
>  <LINE NOTATION>
Cc1ccc(S(=O)(=O)n2c3ccccc3c3nnc(C(=O)c4ccccc4)nc32)cc1

>  <TEST RESULT>
-0.0929

$$$$
>  <LINE NOTATION>
CO[C@@H]1COC(=O)[C@@H](C)COC(=O)[C@@H](C)NC(=O)CC=C[C@@H]1C

>  <TEST RESULT>
-0.963

$$$$

I need composite z-score for every entry listed below, if you could help.
1. CON=C[C@@H](C)[C@H](OCc1ccccc1)C(C)C
2. CC(C)=CCCC(C)=CCON=C1C[C@@H](O)[C@@H](O)[C@@H]2[C@@H]3C(=O)N(Cc4ccccc4)C(=O)[C@@H]3CC[C@H]12

-0.618
1.94

For the 5 molecules below, give their composite z-score values.
1. CON=C[C@@H](NS(=O)(=O)c1ccc(C)cc1)[C@H](C)C=CCC(=O)OC
2. CCOC(=O)NN=C1C[C@@H](O)[C@@H](O)[C@@H]2[C@@H]3C(=O)N(c4ccc(F)cc4F)C(=O)[C@@H]3CC[C@@H]12
3. CO[C@@H]1COC(=O)CC=C[C@@H](C)[C@H](OC)COC(=O)[C@@H](C)COC(=O)CC=C[C@H]1C
4. CC(C)(C)N1C(=O)[C@H]2[C@H]3[C@H](O)[C@H](O)CC(=O)[C@H]3CC[C@H]2C1=O
5. C=CC[C@@H]1C=C[C@H](ON=C2[C@H]3CCn4c(=O)n(-c5ccccc5)c(=O)n4[C@H]3[C@H](O)[C@@H]3O[C@H]23)[C@@H](CO)O1

1. -0.312
2. 0.0129
3. -0.915
4. 0.46
5. -0.114
